The reported measurements were obtained from patent US20230272099A1.

Each entry below carries its recorded absorbance ratio.
# TARGET OF ASSAY: T1, biotinylated Fc-fused monkey CD137 (monkey, biotin on the AviTag)
# T1 construct: also called cyCD137-Fc-BAP
# T1 sequence (chain, as listed by the source limits assumed): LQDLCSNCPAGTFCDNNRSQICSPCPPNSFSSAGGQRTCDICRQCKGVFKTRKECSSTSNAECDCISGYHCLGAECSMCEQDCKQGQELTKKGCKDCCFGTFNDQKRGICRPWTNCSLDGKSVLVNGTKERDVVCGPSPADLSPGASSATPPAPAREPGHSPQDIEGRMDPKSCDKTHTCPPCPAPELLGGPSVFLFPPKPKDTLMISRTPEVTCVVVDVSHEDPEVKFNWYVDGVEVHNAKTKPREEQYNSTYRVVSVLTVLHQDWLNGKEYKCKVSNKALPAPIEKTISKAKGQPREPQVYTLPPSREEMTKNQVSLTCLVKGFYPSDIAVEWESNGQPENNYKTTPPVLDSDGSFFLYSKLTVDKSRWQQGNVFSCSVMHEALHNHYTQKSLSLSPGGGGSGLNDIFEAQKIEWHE
# PROCEDURE TEXT: ELISA, 1 mM ADP, 0.010 ug/mL
# Design: reference not given here
# Description: The obtained antibodies were evaluated for binding to monkey CD137 by ELISA. The cyCD137-Fc-BAP prepared in Reference Example 1 was immobilized on Streptawell microtiter plates. […] Color development was measured by absorbance at 600 nm. Samples with a concentration-dependent increase in the absorbance ratio can be said to be bound to monkey CD137.
Just the number, please, no unit after it.

Before answering, review these 2 worked examples.
BINDER: dBBAT091-P253 (antibody, human IgG1, lambda, V domains shown) VH: EVQLVESGGDLVKPGGGLRLSCAASGFTFSSYTMNWVRQAPGKGLEWVSSISSRSNYIDYADSVKGRFTISRDNAKNSLYLQMNSLRAEDTAVYYCARFGKKNDMNWVFDYWGQGTLVTVSS VL: QSALTQPPSASGSPGQTVTISCTGTSTDVGFYNYVSWYQQHPGKAPKLMIYEGSKRPSGVPDRFSGSKSGNTASLTVSGLQAEDEADYFCSSYEYTESVLFGGGTKLTVLG
absorbance ratio: 0.6
--
BINDER: dBBAT021-P253 (antibody, human IgG1, lambda, V domains shown) VH: EVQLVESGGDLVKPGGGLRLSCAASGFTFSSYTMNWVRQAPGKGLEWVSSISSRSNYRDYADSVKGRFTISRDNAKNSLYLQMNSLRAEDTAVYYCARYGGKNILNWVFDYWGQGTLVTVSS VL: QSALTQPPSASGSPGQTVTISCTGTSSDVGFYNYVSWYQQHPGKAPKLMIYEVSKRPSGVPDRFSGSKSGNTASLTVSGLQAEDEADYFCSSYSSDTHVGFGGGTKLTVLG
absorbance ratio: 0.9

Now look at this one.
What the record says about dBBAT122-P253 (antibody, human IgG1, lambda, V domains shown) VH: EVQLVESGGDLVKPGGGLRLSCAASGFTFSTYTMNWVRQAPGKGLEWVSSISSRSNYKFYADSVKGRFTISRDNAKNSLYLQMNSLRAEDTAVYYCARFGGKNNMNWVFDYWGQGTLVTVSS VL: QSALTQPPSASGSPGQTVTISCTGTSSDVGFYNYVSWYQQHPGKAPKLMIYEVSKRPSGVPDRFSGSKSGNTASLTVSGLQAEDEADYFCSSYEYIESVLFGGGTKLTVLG : absorbance ratio is 0.9
